molecular target: HLA-B*46:01; test: IEDB peptide-MHC binding, purified MHC/direct/fluorescence; filed as Kd, often an IC50 or EC50 that approximates it; bounds were set here for any values at or beyond the usual limits of such assays; settings: source organism: dengue virus type 3
pKd: −log10 of the molar value.
Measure Name: pKd

Indicate the recorded pKd value for this sequence: `KQIANELNY`
≤ 4.70

----------
molecular target: HLA-A*02:06; assay: IEDB peptide-MHC binding, purified MHC/competitive/radioactivity; filed as Kd, often an IC50 or EC50 that approximates it; bounds were set here for any values at or beyond the usual limits of such assays; conditions: source organism: Vaccinia virus WR
pKd: −log10 of the molar value.
Threshold rule: pKd greater than or equal to 6 is Satisfied; below that, Not satisfied.

Check out these entries, answers already filled in.
VTLFIDRGSI; Not satisfied
YVIPDELIDV; Satisfied
ETMYLTMKA; Not satisfied
SMYVIPDELI; Satisfied

Does pKd meet or surpass 6 for `FISYNRHNDT` ?
Not satisfied

Does pKd meet or surpass 6 for `GTSVIRSNI` ?
Not satisfied

Does pKd meet or surpass 6 for `HLMSDNPKA` ?
Satisfied

Does pKd meet or surpass 6 for `RVTKRDESSI` ?
Not satisfied

Does pKd meet or surpass 6 for `IINSVSIIL` ?
Not satisfied

Does pKd meet or surpass 6 for `ELTNKKYRCM` ?
Not satisfied

Does pKd meet or surpass 6 for `VQSVLRDISI` ?
Satisfied

Does pKd meet or surpass 6 for `EIKAEMQLKI` ?
Not satisfied

Does pKd meet or surpass 6 for `LVQYRILPM` ?
Not satisfied

Does pKd meet or surpass 6 for `VMPEKRNVV` ?
Not satisfied
